- Measured target: human CLDN18.2 (human)
- Experimental protocol: cell-based or functional assay
Value type: CDC EC50, NIH-3T3-CLDN18.2 target cells (pM)

1) chimeric antibody xi40F6 (antibody, human IgG1, kappa, V domains shown, Mouse variable regions on human IgG1/kappa; defucosylated, expressed in FUT8-knockout CHO-S cells; also called chimeric 40F6) VH: QVQLKESGPGLVAPSQSLSITCTVSGFSLTSYGVYWVRQSPGKGLEWLGVVWAGGNTNYNSALMSRLSISKDNSKSQVFLKMNSLQTDDTAMYYCARDRGRLLAMDYWGQGTSVTVSS VL: DVVMTQSPSSLSVSAGEKVTMSCKSSQSLLNSGNQKNYLAWYQQKPGQPPKLLIYGASTRESGVPDRFTGSGSGTDFTLTISSVQAEDLAVYYCQNDHFFPFTFGSGTKLEIKR: 290
2) humanized antibody hz40F6-2.4 (antibody, human IgG1, kappa, V domains shown) VH: QVQLVESGGGVVQPGRSLRLSCTVSGFTLTSYGVYWVRQAPGKGLEWVAVVWAGGNTNYNSALKGRFTISKDNSKSTLYLQMNSLRAEDTAVYYCARDRGRLLAMDYWGQGTLVTVSS VL: DIVMTQSPDSLAVSLGERATINCKSSQSLLNSGNQKNYLAWYQQKPGQPPKLLIYGASTRESGVPDRFSGSGSGTDFTLTISSLQAEDVAVYYCQNDYFFPFTFGQGTKVEIKR: 890
3) humanized antibody hz40F6-1.4 (antibody, human IgG1, kappa, V domains shown) VH: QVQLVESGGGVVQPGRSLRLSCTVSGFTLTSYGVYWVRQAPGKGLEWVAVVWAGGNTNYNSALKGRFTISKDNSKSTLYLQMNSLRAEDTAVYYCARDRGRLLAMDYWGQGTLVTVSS VL: DIVMTQSPDSLAVSLGERATINCKSSQSLLNSGNQKNYLAWYQQKPGQPPKLLIYGASTRESGVPDRFTGSGSGTDFTLTISSLQAEDVAVYYCQNDHFFPFTFGQGTKVEIKR: 550
